Taken from ChEMBL document CHEMBL1932966.

Target protein (sequence): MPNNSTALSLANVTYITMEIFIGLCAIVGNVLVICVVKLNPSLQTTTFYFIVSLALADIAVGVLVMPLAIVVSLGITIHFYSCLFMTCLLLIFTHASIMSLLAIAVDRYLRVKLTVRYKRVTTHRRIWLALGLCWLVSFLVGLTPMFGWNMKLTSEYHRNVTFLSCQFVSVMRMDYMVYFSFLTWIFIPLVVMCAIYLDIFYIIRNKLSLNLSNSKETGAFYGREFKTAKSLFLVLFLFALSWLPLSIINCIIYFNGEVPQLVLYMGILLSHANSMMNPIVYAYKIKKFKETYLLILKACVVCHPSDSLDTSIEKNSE
pKi: −log10 of the molar value.
measure.name: pKi

>>> print(df.to_string())
                            chemical_string  qual  observed_measurement
0  COc1ccc(NC(=O)Nc2nc3cnn(CCCc4ccccc4)c3c3nc(-c4ccco4)nn23)cc1     <                  6.00
1          Cn1ncc2nc(N)n3nc(-c4ccco4)nc3c21     =                  6.13
2  CCCn1ncc2nc(NC(=O)Nc3ccc(OC)cc3)n3nc(-c4ccco4)nc3c21     =                  6.79
3  Cn1cc2nc(NC(=O)Nc3ccncc3)n3nc(-c4ccco4)nc3c2c1     =                  6.95
4  COc1ccc(NC(=O)Nc2nc3cn(C)nc3c3nc(-c4ccco4)nn23)cc1     =                  6.96
5          Cn1cc2nc(N)n3nc(-c4ccco4)nc3c2c1     =                  7.30
